test system: AA1029; experiment: qHTS profiling for inhibitors of Plasmodium falciparum proliferation (AID 504749); note: nearly all actives have a fitted effect of over 60% in size; note: potency is the fitted concentration of half-maximal effect; conditions: P. falciparum in erythrocytes, SYBR Green DNA, 72 h; series mostly up to 28.7 µM
Inconclusive results are not listed. The source made the active and inactive calls. Calls come from the whole dose curve; as a rule, active = well fitted inhibition curve with a large enough effect; inconclusive = small, poorly fitted or top-dose-only effect; inactive = flat fitted curve, though single readings scatter.
measured endpoint: Potency

Recorded Potency, per entry:
{"molecule": "CC[N+](C)(C)c1cccc(O)c1", "measured result": "inactive"}
{"molecule": "CCc1cccc(N(C)C(N)=Nc2cccc3ccccc23)c1", "measured result": "3.55 µM (active)"}
{"molecule": "CCCCNC(=O)NS(=O)(=O)c1ccc(C)cc1", "measured result": "inactive"}
{"molecule": "Nc1nc(N)c2nc(-c3ccccc3)c(N)nc2n1", "measured result": "inactive"}
{"molecule": "COC(=O)[C@@H](N)Cc1ccc(O)c(O)c1", "measured result": "inactive"}

q: Please look up its Potency: NC(Cc1ccc(Cl)cc1)C(=O)O (stereo not drawn)
a: inactive

q: Please look up its Potency: CN=C(NC#N)NCCSCc1nc[nH]c1C
a: inactive

q: Please look up its Potency: CN(C)CCOC(=O)COc1ccc(Cl)cc1
a: inactive

q: Please look up its Potency: CC(C)(Oc1ccc(CCNC(=O)c2ccc(Cl)cc2)cc1)C(=O)O
a: inactive

----------
assay: qHTS for differential inhibitors of proliferation of Plasmodium falciparum line 3D7 (AID 1876); note: potency is the fitted concentration of half-maximal effect; settings: P. falciparum 3D7 proliferation inhibition; series mostly up to 28.7 µM
Records with an inconclusive call do not appear. Calls of active or inactive are those of the source. Calls come from the whole dose curve; as a rule, active = well fitted curve in the direction sought with a large enough effect; inconclusive = small, poorly fitted or top-dose-only effect, or another doubt; inactive = no such curve, though single readings can be large or run the other way.
measured endpoint: Potency

Recorded Potency, per entry:
{"compound": "c1cnc(N2CCN(Cc3ccc4c(c3)OCO4)CC2)nc1", "Potency": "inactive"}
{"compound": "CN=C(NC#N)NCCSCc1nc[nH]c1C", "Potency": "inactive"}
{"compound": "CC(C)NNC(=O)c1ccncc1", "Potency": "inactive"}
{"compound": "Cc1nc2sccn2c(=O)c1CCN1CCC(=C(c2ccc(F)cc2)c2ccc(F)cc2)CC1", "Potency": "11.2 µM (active)"}
{"compound": "CCN(CC)CCNC(=O)c1cc(S(C)(=O)=O)ccc1OC", "Potency": "inactive"}
{"compound": "CCc1c(C)[nH]c2c1C(=O)C(CN1CCOCC1)CC2 (stereo not given)", "Potency": "inactive"}
{"compound": "C[N+](C)(C)CCOC(N)=O", "Potency": "inactive"}
{"compound": "CCn1ccnc1CC1COc2ccccc2O1 (stereo not given)", "Potency": "inactive"}

q: Please look up its Potency: O=C(O)CN(CCN(CC(=O)O)CC(=O)O)CCN(CC(=O)O)CC(=O)O
a: inactive

q: Please look up its Potency: CCCN1C[C@H](CSC)C[C@@H]2c3cccc4[nH]cc(c34)C[C@H]21
a: 11.2 µM (active)

q: Please look up its Potency: CCO/C([O-])=N/c1c[n+](N2CCOCC2)no1
a: inactive

q: Please look up its Potency: COC(=O)[C@H]1[C@H]2C[C@@H]3c4[nH]c5cc(OC)ccc5c4CCN3C[C@H]2C[C@@H](OC(=O)c2cc(OC)c(OC)c(OC)c2)[C@@H]1OC
a: 1.78 µM (active)

q: Please look up its Potency: NC(=O)N1c2ccccc2C=Cc2ccccc21
a: inactive

----------
assay: Cell Viability - LYMP1-003 - Assay at 40 hr (AID 964); settings: LYMP1-003 lymphoblastoid viability; series mostly up to 92.2 µM; note: nearly all actives have a fitted effect of over 60% in size
Records with an inconclusive call do not appear. Activity calls are given as the source filed them. The call rests on the fitted dose curve; in most records, active means well fitted cell-killing curve with a large enough effect; inconclusive means small, poorly fitted or top-dose-only effect; inactive means flat fitted curve, though single readings scatter.
Pick one: true (active), false (inactive)

Worked examples follow.
{"compound string": "O=c1[nH]c(=O)n([C@H]2C[C@H](O)[C@@H](CO)O2)cc1Br", "label": "false"}
{"compound string": "CCCCOCCOCCOCc1cc2c(cc1CCC)OCO2", "label": "false"}
{"compound string": "Nc1ncn([C@@H]2O[C@H](CO)[C@@H](O)[C@H]2O)c(=O)n1", "label": "true"}
{"compound string": "COc1ccc(CN(CCN(C)C)c2ccccn2)cc1", "label": "false"}
{"compound string": "COc1cc(Cc2cnc(N)nc2N)cc(OC)c1OC", "label": "false"}

Let us examine a further case.
q: Could you please tell me the result logged for NC(=O)N1c2ccccc2C=Cc2ccccc21 in this assay?
a: false

----------
test system: 3D7; test: qHTS profiling for inhibitors of Plasmodium falciparum proliferation (AID 504749); note: nearly all actives have a fitted effect of over 60% in size; conditions: P. falciparum in erythrocytes, SYBR Green DNA, 72 h; series mostly up to 28.7 µM
Records with an inconclusive call do not appear. The source made the active and inactive calls. The call rests on the fitted dose curve; in most records, active means well fitted inhibition curve with a large enough effect; inconclusive means small, poorly fitted or top-dose-only effect; inactive means flat fitted curve, though single readings scatter.
Pick one: active, inactive

Worked examples follow.
{"compound": "OCCN1CCN(CC/C=C2/c3ccccc3Sc3ccc(C(F)(F)F)cc32)CC1", "target of assay": "3D7", "label": "active"}
{"compound": "CC(C)COCC(CN(Cc1ccccc1)c1ccccc1)N1CCCC1 (stereo unspecified)", "target of assay": "3D7", "label": "inactive"}
{"compound": "Cc1nc2c([nH]1)c(=O)n(C)c(=O)n2Cc1ccco1", "target of assay": "3D7", "label": "inactive"}
{"compound": "COc1ccc([C@@H]2Sc3ccccc3N(CCN(C)C)C(=O)[C@@H]2OC(C)=O)cc1", "target of assay": "3D7", "label": "inactive"}
{"compound": "CC(=O)[C@]1(O)Cc2c(O)c3c(c(O)c2[C@@H](O[C@H]2C[C@H](N)[C@H](O)[C@H](C)O2)C1)C(=O)c1ccccc1C3=O", "target of assay": "3D7", "label": "active"}

Let us examine a further case.
q: Could you please tell me the result logged for CN(C)CC[C@@H](c1ccc(Br)cc1)c1ccccn1 in this assay?
a: inactive

----------
test: qHTS for differential inhibitors of proliferation of Plasmodium falciparum line Dd2 (AID 1882); conditions: Plasmodium falciparum Dd2 proliferation inhibition; series mostly up to 28.7 µM; note: nearly all actives have a fitted effect of over 65% in size
Records with an inconclusive call do not appear. The source made the active and inactive calls. The call rests on the fitted dose curve; in most records, active means well fitted inhibition curve with a large enough effect; inconclusive means small, poorly fitted or top-dose-only effect; inactive means flat fitted curve, though single readings scatter.
Pick one: true (active), false (inactive)

Worked examples follow.
{"compound": "COc1ccc(CCN(C)CCCC(C#N)(c2cc(OC)c(OC)c(OC)c2)C(C)C)cc1OC (stereo not given)", "label": "true"}
{"compound": "OC(CCN1CCCCC1)(c1ccccc1)C1CCCCC1 (stereo not given)", "label": "true"}
{"compound": "CC(C)NNC(=O)c1ccncc1", "label": "false"}
{"compound": "Cc1nnc(SCC2=C(C(=O)O)N3C(=O)[C@@H](NC(=O)Cn4cnnn4)[C@H]3SC2)s1", "label": "false"}
{"compound": "O=C1CC2(CCCC2)CC(=O)N1CCCCN1CCN(c2ncccn2)CC1", "label": "false"}

q: Could you please tell me the result logged for CC(=O)OC(C)C[N+](C)(C)C (stereo not given) in this assay?
a: false

q: Could you please tell me the result logged for O=c1[nH]c(=O)n([C@H]2C[C@H](O)[C@@H](CO)O2)cc1Br in this assay?
a: false

q: Could you please tell me the result logged for Cc1scc2c1N(C(=O)CN1CCN(C)CC1)c1ccccc1NC2=O in this assay?
a: false

----------
Tested on: CP252
Experiment: qHTS profiling for inhibitors of Plasmodium falciparum proliferation (AID 504749); note: nearly all actives have a fitted effect of over 60% in size
Settings: P. falciparum in erythrocytes, SYBR Green DNA, 72 h; series mostly up to 28.7 µM
Experimental: NIH National Institute of Allergy and Infectious Diseases [NIAID] NIH Chemical Genomics Center [NCGC] […] Because mature erythrocytes lack DNA, only Plasmodium-derived DNA is detected. NCGC Assay Protocol Summary: The SYBR Green viability assay was adapted from a method described previously (Plouffe et al., 2008). […] The following morning, fluorescence intensity at 485(14) nm excitation and 535(25) nm emission wavelengths was measured on an EnVision (Perkin Elmer) plate reader. […]
Records with an inconclusive call do not appear. Calls of active or inactive are those of the source. Calls come from the whole dose curve; as a rule, active = well fitted inhibition curve with a large enough effect; inconclusive = small, poorly fitted or top-dose-only effect; inactive = flat fitted curve, though single readings scatter.
Pick one: active, inactive

{"molecule": "CN(C)C(=O)Oc1cccc([N+](C)(C)C)c1", "label": "inactive"}
{"molecule": "CN1CCN(C2=Nc3ccccc3Oc3ccc(Cl)cc32)CC1", "label": "inactive"}
{"molecule": "CCOC(=O)C1=C(C)NC(C)=C(C(=O)OC)C1c1cccc(Cl)c1Cl (configuration not stated)", "label": "inactive"}
{"molecule": "OC(CCN1CCCCC1)(c1ccccc1)C1CCCCC1 (configuration not stated)", "label": "inactive"}
{"molecule": "CCCCNc1c(C(=O)OCC)c(C)nc2c1cnn2CC", "label": "inactive"}
{"molecule": "O=C(O)CN(CCN(CC(=O)O)CC(=O)O)CCN(CC(=O)O)CC(=O)O", "label": "inactive"}
{"molecule": "Cc1nnc(SCC2=C(C(=O)O)N3C(=O)[C@@H](NC(=O)Cn4cnnn4)[C@H]3SC2)s1", "label": "inactive"}
{"molecule": "CC(=O)OCC1=C(C(=O)O)N2C(=O)[C@@H](NC(=O)Cc3cccs3)[C@H]2SC1", "label": "inactive"}

q: Could you please tell me the result logged for CN(C)CCOC(=O)COc1ccc(Cl)cc1 in this assay?
a: inactive

q: Could you please tell me the result logged for CCCN(CCC)CCc1cccc2c1CC(=O)N2 in this assay?
a: inactive

q: Could you please tell me the result logged for CC(=O)[C@]1(O)Cc2c(O)c3c(c(O)c2[C@@H](O[C@H]2C[C@H](N)[C@H](O)[C@H](C)O2)C1)C(=O)c1ccccc1C3=O in this assay?
a: active

q: Could you please tell me the result logged for CN1CCN(CC(=O)N2c3ccccc3C(=O)Nc3cccnc32)CC1 in this assay?
a: inactive

q: Could you please tell me the result logged for NS(=O)(=O)c1cc2c(cc1Cl)NC(C1CC3C=CC1C3)NS2(=O)=O (configuration not stated) in this assay?
a: inactive

q: Could you please tell me the result logged for C[C@]12CCC(=O)C=C1CC[C@@H]1[C@@H]2CC[C@@]2(C)[C@H]1CC[C@]2(O)C(=O)CO in this assay?
a: inactive

q: Could you please tell me the result logged for CCOC(=O)C1=C(C)NC(C)=C(C(=O)OC)C1c1cccc([N+](=O)[O-])c1 (configuration not stated) in this assay?
a: active

q: Could you please tell me the result logged for NC(=O)c1cn(Cc2c(F)cccc2F)nn1 in this assay?
a: inactive

q: Could you please tell me the result logged for Brc1c(NC2=NCCN2)ccc2nccnc12 in this assay?
a: inactive

q: Could you please tell me the result logged for NC(Cc1ccc(Cl)cc1)C(=O)O (configuration not stated) in this assay?
a: inactive

q: Could you please tell me the result logged for NC(=O)N1c2ccccc2C=Cc2ccccc21 in this assay?
a: inactive

q: Could you please tell me the result logged for CC(C)COCC(CN(Cc1ccccc1)c1ccccc1)N1CCCC1 (configuration not stated) in this assay?
a: inactive

q: Could you please tell me the result logged for COCC(=O)O[C@]1(CCN(C)CCCc2nc3ccccc3[nH]2)CCc2cc(F)ccc2[C@@H]1C(C)C in this assay?
a: active

q: Could you please tell me the result logged for CCN(CC)CCNC(=O)c1ccc(NC(C)=O)cc1 in this assay?
a: inactive
